Give measured isoTOP-ABPP ratio (R) at liganded lysine Q9NQC3_K1104 for each item. Keep answers brief.
Target or test system: RTN4 Reticulon-4 (Homo sapiens, UniProt Q9NQC3)
Construct: endogenous in cells; host or cells: MDA-MB-231 lysate
Sequence (Q9NQC3 whole entry): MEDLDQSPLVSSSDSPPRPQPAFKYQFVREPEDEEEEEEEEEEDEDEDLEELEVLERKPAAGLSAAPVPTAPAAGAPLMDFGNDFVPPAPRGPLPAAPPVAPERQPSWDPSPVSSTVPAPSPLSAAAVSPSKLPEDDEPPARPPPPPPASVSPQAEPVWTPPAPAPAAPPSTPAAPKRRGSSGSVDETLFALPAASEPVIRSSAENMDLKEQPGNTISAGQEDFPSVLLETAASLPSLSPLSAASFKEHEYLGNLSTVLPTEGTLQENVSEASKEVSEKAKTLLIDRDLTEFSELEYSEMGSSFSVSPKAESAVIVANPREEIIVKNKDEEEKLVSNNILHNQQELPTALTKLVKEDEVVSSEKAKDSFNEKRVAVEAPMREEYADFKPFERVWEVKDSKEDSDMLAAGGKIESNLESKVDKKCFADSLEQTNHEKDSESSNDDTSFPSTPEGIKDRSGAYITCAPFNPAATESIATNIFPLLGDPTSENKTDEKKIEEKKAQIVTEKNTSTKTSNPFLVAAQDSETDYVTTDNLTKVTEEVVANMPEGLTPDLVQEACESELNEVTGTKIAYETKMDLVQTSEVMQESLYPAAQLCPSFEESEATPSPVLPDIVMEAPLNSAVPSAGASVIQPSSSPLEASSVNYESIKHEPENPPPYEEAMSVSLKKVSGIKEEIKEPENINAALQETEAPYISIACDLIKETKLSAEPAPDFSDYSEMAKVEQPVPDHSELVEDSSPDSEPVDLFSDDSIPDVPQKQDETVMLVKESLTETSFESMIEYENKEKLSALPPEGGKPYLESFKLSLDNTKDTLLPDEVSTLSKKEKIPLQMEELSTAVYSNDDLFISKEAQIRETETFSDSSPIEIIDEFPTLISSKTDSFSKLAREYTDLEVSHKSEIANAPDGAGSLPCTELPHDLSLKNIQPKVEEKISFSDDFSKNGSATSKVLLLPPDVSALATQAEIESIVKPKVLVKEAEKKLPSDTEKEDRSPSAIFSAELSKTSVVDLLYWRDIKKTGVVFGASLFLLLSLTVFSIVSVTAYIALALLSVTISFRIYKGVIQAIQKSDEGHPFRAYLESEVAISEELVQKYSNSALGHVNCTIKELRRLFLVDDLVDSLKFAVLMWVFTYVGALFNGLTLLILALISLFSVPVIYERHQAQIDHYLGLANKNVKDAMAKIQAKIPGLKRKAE
Assay name: competitive isoTOP-ABPP
Type: binding
Measurement parameters: 50 uM, in vitro, sol, 231
Please reply with the value in numeric form only.

Can you look up the measured isoTOP-ABPP ratio (R) at liganded lysine Q9NQC3_K1104 of O=C(Oc1ccc([N+](=O)[O-])cc1[N+](=O)[O-])C(c1ccccc1)(c1ccccc1)c1ccccc1 [fragment 42, 2,4-Dinitrophenyl 2,2,2-triphenylacetate] for me?
1.2

Can you look up the measured isoTOP-ABPP ratio (R) at liganded lysine Q9NQC3_K1104 of CC(=O)Oc1ccc([N+](=O)[O-])cc1[N+](=O)[O-] [fragment 43, 2,4-Dinitrophenyl acetate] for me?
1.4

Can you look up the measured isoTOP-ABPP ratio (R) at liganded lysine Q9NQC3_K1104 of O=C(Oc1ccc([N+](=O)[O-])cc1[N+](=O)[O-])c1ccc2ccccc2n1 for me?
6.0

Can you look up the measured isoTOP-ABPP ratio (R) at liganded lysine Q9NQC3_K1104 of O=C(Oc1ccc([N+](=O)[O-])cc1[N+](=O)[O-])c1ccccc1Nc1cccc(C(F)(F)F)c1 for me?
2.1

Can you look up the measured isoTOP-ABPP ratio (R) at liganded lysine Q9NQC3_K1104 of CC(C)(C)OC(=O)NCCCC(=O)Oc1ccc([N+](=O)[O-])cc1[N+](=O)[O-] for me?
4.3

Can you look up the measured isoTOP-ABPP ratio (R) at liganded lysine Q9NQC3_K1104 of O=C(Oc1ccc([N+](=O)[O-])cc1[N+](=O)[O-])c1ccc(-c2ccccc2)cc1 for me?
3.4

* * *

Target or test system: KPNA2 Importin subunit alpha-2 (Homo sapiens)
Construct: isoTOP-ABPP experiments performed in cell lysates (in vitro); endogenous in cells; host or cells: soluble proteome of human cancer cell lines (MDA-MB-231, Ramos, Jurkat)
Assay name: competitive isoTOP-ABPP
Format: binding
Measurement parameters: P52292_K459; 50 uM, 231 sol, in vitro
Criterion: R value (DMSO/fragment) for probe 1 labeling strictly under 6. Met: True. Not met: False.

For COc1cc(CCC(=O)Oc2c(F)c(F)c(F)c(F)c2F)cc(OC)c1OC , is the recorded R value (DMSO/fragment) for probe 1 labeling below the cut-off of 6?
True

For O=C(CCc1cn(-c2ccccc2)nc1-c1ccccc1)Oc1c(F)c(F)c(F)c(F)c1F , is the recorded R value (DMSO/fragment) for probe 1 labeling below the cut-off of 6?
True

For O=C(Oc1c(F)c(F)c(F)c(F)c1F)C(c1ccccc1)c1ccccc1 [fragment 20, Pentafluorophenyl 2,2-diphenylacetate] , is the recorded R value (DMSO/fragment) for probe 1 labeling below the cut-off of 6?
True

For Cn1cc(CC(=O)Oc2c(F)c(F)c(F)c(F)c2F)c2ccccc21 , is the recorded R value (DMSO/fragment) for probe 1 labeling below the cut-off of 6?
False

For O=C(Oc1c(F)c(F)c(F)c(F)c1F)c1cc(C(F)(F)F)cc(C(F)(F)F)c1 , is the recorded R value (DMSO/fragment) for probe 1 labeling below the cut-off of 6?
True

* * *

Target or test system: TRMT10C Mitochondrial ribonuclease P protein 1 (Homo sapiens, UniProt Q7L0Y3)
Construct: isoTOP-ABPP experiments performed in cell lysates (in vitro); endogenous in cells; host or cells: soluble proteome of human cancer cell lines (MDA-MB-231; Ramos and Jurkat also prepared)
Sequence (Q7L0Y3 40-403): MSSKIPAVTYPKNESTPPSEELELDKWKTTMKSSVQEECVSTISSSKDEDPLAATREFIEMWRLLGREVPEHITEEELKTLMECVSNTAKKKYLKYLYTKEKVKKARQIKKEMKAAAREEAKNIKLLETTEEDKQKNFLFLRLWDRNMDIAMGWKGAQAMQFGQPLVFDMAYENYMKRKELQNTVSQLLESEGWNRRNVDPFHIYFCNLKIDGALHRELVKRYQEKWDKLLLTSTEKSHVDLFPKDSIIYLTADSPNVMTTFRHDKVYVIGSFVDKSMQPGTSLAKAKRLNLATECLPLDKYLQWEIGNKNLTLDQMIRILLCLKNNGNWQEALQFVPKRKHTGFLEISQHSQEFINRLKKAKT
Assay name: competitive isoTOP-ABPP
Format: binding
Measurement parameters: 50 uM_231_sol_in vitro
Give measured isoTOP-ABPP ratio, lysine Q7L0Y3_K325 for each item. Keep answers brief.
Please reply with the value in numeric form only.

Hi! What's the reported isoTOP-ABPP ratio, lysine Q7L0Y3_K325 for NC(=O)c1cc(C(F)(F)F)cc(C(F)(F)F)c1 [fragment 51, reference compound] on TRMT10C Mitochondrial ribonuclease P protein 1 (Homo sapiens, UniProt Q7L0Y3)?
0.9

Hi! What's the reported isoTOP-ABPP ratio, lysine Q7L0Y3_K325 for O=C(ON1C(=O)CCC1=O)c1cc(C(F)(F)F)cc(C(F)(F)F)c1 [fragment 46] on TRMT10C Mitochondrial ribonuclease P protein 1 (Homo sapiens, UniProt Q7L0Y3)?
1.0

Hi! What's the reported isoTOP-ABPP ratio, lysine Q7L0Y3_K325 for N#Cc1ccc(C(=O)Oc2ccc([N+](=O)[O-])cc2[N+](=O)[O-])cc1 [fragment 44, 2,4-Dinitrophenyl 4-cyanobenzoate] on TRMT10C Mitochondrial ribonuclease P protein 1 (Homo sapiens, UniProt Q7L0Y3)?
1.3

Hi! What's the reported isoTOP-ABPP ratio, lysine Q7L0Y3_K325 for O=C(Oc1c(F)c(F)c(C(F)(F)F)c(F)c1F)c1cc(C(F)(F)F)cc(C(F)(F)F)c1 [fragment 47] on TRMT10C Mitochondrial ribonuclease P protein 1 (Homo sapiens, UniProt Q7L0Y3)?
1.1

Hi! What's the reported isoTOP-ABPP ratio, lysine Q7L0Y3_K325 for O=C(CCc1ccc2c(c1)OCO2)Oc1ccc([N+](=O)[O-])cc1[N+](=O)[O-] [fragment 45] on TRMT10C Mitochondrial ribonuclease P protein 1 (Homo sapiens, UniProt Q7L0Y3)?
1.0

* * *

Target or test system: PSME3 Proteasome activator complex subunit 3 (Homo sapiens, UniProt P61289)
Construct: isoTOP-ABPP experiments performed in cell lysates (in vitro); endogenous in cells; host or cells: soluble proteome of human cancer cell lines (MDA-MB-231, Ramos, Jurkat)
Sequence (P61289 whole entry, one chain of several): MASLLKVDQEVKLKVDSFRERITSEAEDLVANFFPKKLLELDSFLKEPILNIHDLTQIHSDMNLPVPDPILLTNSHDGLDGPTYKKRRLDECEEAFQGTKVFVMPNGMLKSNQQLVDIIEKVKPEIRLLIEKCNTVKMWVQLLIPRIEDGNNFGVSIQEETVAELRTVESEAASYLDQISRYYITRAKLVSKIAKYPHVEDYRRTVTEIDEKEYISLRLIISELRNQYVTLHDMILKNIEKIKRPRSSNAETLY
Assay name: competitive isoTOP-ABPP
Assay type: binding
Design: key: R = MS1 peak area ratio, DMSO (heavy) / compound-treated (light); capped at 20
Measurement parameters: 50 uM, 231 sol, in vitro
Measure: isoTOP-ABPP reactivity ratio at lysine P61289_K12
Please reply with the value in numeric form only.

Can you look up the measured isoTOP-ABPP reactivity ratio at lysine P61289_K12 of O=C(CCc1cn(-c2ccccc2)nc1-c1ccccc1)Oc1ccc([N+](=O)[O-])cc1[N+](=O)[O-] for me?
1.1

Can you look up the measured isoTOP-ABPP reactivity ratio at lysine P61289_K12 of O=C(CCc1coc2cc(F)ccc2c1=O)Oc1c(F)c(F)c(F)c(F)c1F for me?
0.9

Can you look up the measured isoTOP-ABPP reactivity ratio at lysine P61289_K12 of COc1cc(CCC(=O)Oc2ccc([N+](=O)[O-])cc2[N+](=O)[O-])cc(OC)c1OC for me?
2.1

* * *

Target or test system: PNPO Pyridoxine-5-phosphate oxidase (Homo sapiens)
Construct: endogenous in cells; host or cells: MDA-MB-231 (soluble fraction of lysate)
Sequence (Q9NVS9 1-261): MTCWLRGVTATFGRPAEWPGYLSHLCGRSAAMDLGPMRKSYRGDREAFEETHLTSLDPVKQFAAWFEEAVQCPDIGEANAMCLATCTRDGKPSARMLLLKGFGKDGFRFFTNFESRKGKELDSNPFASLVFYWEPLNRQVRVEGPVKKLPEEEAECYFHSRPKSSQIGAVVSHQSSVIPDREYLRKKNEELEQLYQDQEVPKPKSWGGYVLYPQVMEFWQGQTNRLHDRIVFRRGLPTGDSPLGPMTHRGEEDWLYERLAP
Assay name: competitive isoTOP-ABPP
Format: binding
Measurement parameters: 50 uM, 231 sol, in vitro
Measure: isoTOP-ABPP reactivity ratio at lysine Q9NVS9_K100

Can you look up the measured isoTOP-ABPP reactivity ratio at lysine Q9NVS9_K100 of O=C(Oc1ccc([N+](=O)[O-])cc1[N+](=O)[O-])c1cc(C(F)(F)F)cc(C(F)(F)F)c1 for me?
1.0

Can you look up the measured isoTOP-ABPP reactivity ratio at lysine Q9NVS9_K100 of O=C(Oc1ccc([N+](=O)[O-])cc1[N+](=O)[O-])C(c1ccccc1)c1ccccc1 [fragment 30, 2,4-Dinitrophenyl 2,2-diphenylacetate] for me?
1.0

Can you look up the measured isoTOP-ABPP reactivity ratio at lysine Q9NVS9_K100 of Cn1cc(CC(=O)Oc2ccc([N+](=O)[O-])cc2[N+](=O)[O-])c2ccccc21 for me?
3.6

Can you look up the measured isoTOP-ABPP reactivity ratio at lysine Q9NVS9_K100 of CCn1cc(C(=O)Oc2c(F)c(F)c(F)c(F)c2F)c(=O)c2ccc(C)nc21 for me?
0.9

Can you look up the measured isoTOP-ABPP reactivity ratio at lysine Q9NVS9_K100 of COc1cc(CCC(=O)Oc2ccc([N+](=O)[O-])cc2[N+](=O)[O-])cc(OC)c1OC for me?
1.2

Can you look up the measured isoTOP-ABPP reactivity ratio at lysine Q9NVS9_K100 of O=C(Oc1c(F)c(F)c(F)c(F)c1F)c1ccc2ccccc2n1 for me?
1.0

Can you look up the measured isoTOP-ABPP reactivity ratio at lysine Q9NVS9_K100 of O=C(CCc1cn(-c2ccccc2)nc1-c1ccccc1)Oc1ccc([N+](=O)[O-])cc1[N+](=O)[O-] for me?
1.9
